System: rats with secondary hyperparathyroidism due to renal failure
Experiment: Secondary hyperparathyroidism in the rat renal insufficiency model (7/8 nephrectomy)
Assay type: in vivo
Details: 7/8 nephrectomized rats, 0.1 μg/kg/day oral, seven days; serum calcium
assay.metric: Final Ca Levels

INSERT INTO results (molecule, assay_target, result) VALUES
  ('C=C1/C(=C\C=C2/CCC[C@]3(C)[C@@H]([C@H](C)CCCC(C)(C)O)CC[C@@H]23)C[C@@H](O)C[C@@H]1O [1,25-di(OH)-cholecalciferol, 1,25-dihydroxy-cholecalciferol, reference compound]', 'rats with secondary hyperparathyroidism due to renal failure', '9.75 mg/dL'),
  ('C[C@]12CCC/C(=C\C=C3C[C@@H](O)C[C@H](O)C3)[C@@H]1CC[C@@H]2C1(CC#CC(O)(C(F)(F)F)C(F)(F)F)CC1', 'rats with secondary hyperparathyroidism due to renal failure', '10.1 mg/dL'),
  ('C=C1/C(=C\C=C2/CCC[C@]3(C)[C@@H](C4(CC#CC(O)(C(F)(F)F)C(F)(F)F)CC4)CC[C@@H]23)C[C@@H](O)C[C@@H]1O', 'rats with secondary hyperparathyroidism due to renal failure', '10.7 mg/dL');
